- System: RXF 393 renal
- assay-explanation: NCI tumour cell line growth inhibition, 48 h

compound	test-target	TGI
Cc1ccccc1/C=C/c1csnn1	RXF 393 renal	> 100 µM
O=C1/C(=C/c2cccnc2)SC(=S)N1Cc1ccco1	RXF 393 renal	24.2 µM
Oc1ccc(-c2c3ccccc3c(-c3ccc(O)cc3)c3ccccc23)cc1	RXF 393 renal	> 100 µM
COc1ccc(-n2cc(-c3cc(OC)c(OC)c(OC)c3)nc2SCc2ccc(Cl)cc2)cc1OC	RXF 393 renal	> 100 µM
CN(C)c1ccc(C(=S)c2ccc(N(C)C)cc2)cc1	RXF 393 renal	42.9 µM
COc1ccccc1-n1cnc2c1NC(C)(C)N=C2C(N)=O	RXF 393 renal	> 100 µM
Cn1c(N/N=C/c2ccccc2)nc(-c2ccc3c(c2)OCO3)c(C#N)c1=O	RXF 393 renal	> 100 µM
Cc1ccc(C2(O)c3ccccc3C(=O)N(C)C2(O)c2ccc(C)cc2)cc1 (stereo unspecified)	RXF 393 renal	> 100 µM
O=C1C=CC2(CCCCCCC2=O)CC1 (stereo unspecified)	RXF 393 renal	> 100 µM
CC1=C(C(=O)Nc2cccc(Cl)c2)C(c2ccccc2O)C(C(=O)Nc2cccc(Cl)c2)=C(C)N1	RXF 393 renal	31.9 µM
Cc1cccc2c(N)c3cccc(C(=O)NCC[N+](C)(C)Cc4ccc([N+](=O)[O-])n4C)c3nc12	RXF 393 renal	> 72.7 µM

* * *

- Test system: SF-539 CNS
- assay-explanation: NCI tumour cell line growth inhibition, 48 h
We begin with a simple list: items and their reported log10 of TGI.
metric-name: log10 of TGI (log10 of the value in µM)

compound	test-target	log10 of TGI
COc1ccc2[nH]c(Cl)c(/C=C3/C(=O)Nc4ccccc43)c2c1	SF-539 CNS	-0.14
COc1ccccc1N1CCN(CCCCNC(=O)c2ccc([N+](=O)[O-])o2)CC1	SF-539 CNS	1.29
O=C1OC(CC(=O)c2ccc(F)cc2)C(Cl)=C1Cl (stereo unspecified)	SF-539 CNS	1.55
C[C@@H](O)[C@@H](C)Oc1nc(Nc2ccc(S(=N)(=O)C3CC3)cc2)ncc1C(F)(F)F (stereo partly specified)	SF-539 CNS	-1.42
Nc1n[n+]([O-])c2cc([N+](=O)[O-])ccc2[n+]1[O-]	SF-539 CNS	1.20
CN(C)c1ccc(/C=C/C(=O)c2cc(C(C)(C)C)c(O)c(C(C)(C)C)c2)cc1	SF-539 CNS	0.26
O=CC(OC(=O)c1ccccc1)C(OC(=O)c1ccccc1)C(COC(c1ccccc1)(c1ccccc1)c1ccccc1)OC(=O)c1ccccc1 (stereo unspecified)	SF-539 CNS	1.29
COc1ccc(C(=O)/C=C/c2sc(Cl)nc2Cl)cc1	SF-539 CNS	0.63
CN(C)c1ccc(C(=S)c2ccc(N(C)C)cc2)cc1	SF-539 CNS	1.75

* * *

- System: NCI-H23 lung
- assay-explanation: NCI tumour cell line growth inhibition, 48 h
Quick rule: TGI of at least 40 µM means Fulfilled, below that means Not fulfilled.

molecule	qualitative-label
CCCCCCCCCCC(=O)CCCCCCC(=O)O	Fulfilled
NC(CCSCC(F)(F)F)C(=O)O (stereo unspecified)	Fulfilled
N#C/C(=C\c1ccc(O)c(O)c1)C(=O)NCc1ccc(C(F)(F)F)cc1	Not fulfilled
Nc1nc(Cl)cc(NCC2(CO)CCCCC2)n1	Fulfilled
O=[N+]([O-])c1cc(C2(N3CCCCC3)CCCCC2)sc1Br	Not fulfilled
CC12NC(=C(C#N)C#N)C(C#N)=C3NC(N)=C(C#N)C(=C31)Oc1ccccc12 (stereo unspecified)	Fulfilled
O=C(O)c1cc2ccccc2c(Cc2c(O)c(C(=O)O)cc3ccccc23)c1O	Fulfilled
O=C(Nc1ccccc1)c1cc2ccccc2c(N=Nc2cccc([N+](=O)[O-])c2)c1O	Fulfilled
CC1(C)OB(c2ccc(N(CCOS(C)(=O)=O)CCOS(C)(=O)=O)cc2)OC1(C)C	Not fulfilled
